Origin of values: ChEMBL document CHEMBL1961873

# system: Dual specificity tyrosine-phosphorylation-regulated kinase 1B (Homo sapiens) (UniProt Q9Y463);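 note: values are mean percent inhibition of DYRK1B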
# Sequence (Q9Y463 whole entry, looked up): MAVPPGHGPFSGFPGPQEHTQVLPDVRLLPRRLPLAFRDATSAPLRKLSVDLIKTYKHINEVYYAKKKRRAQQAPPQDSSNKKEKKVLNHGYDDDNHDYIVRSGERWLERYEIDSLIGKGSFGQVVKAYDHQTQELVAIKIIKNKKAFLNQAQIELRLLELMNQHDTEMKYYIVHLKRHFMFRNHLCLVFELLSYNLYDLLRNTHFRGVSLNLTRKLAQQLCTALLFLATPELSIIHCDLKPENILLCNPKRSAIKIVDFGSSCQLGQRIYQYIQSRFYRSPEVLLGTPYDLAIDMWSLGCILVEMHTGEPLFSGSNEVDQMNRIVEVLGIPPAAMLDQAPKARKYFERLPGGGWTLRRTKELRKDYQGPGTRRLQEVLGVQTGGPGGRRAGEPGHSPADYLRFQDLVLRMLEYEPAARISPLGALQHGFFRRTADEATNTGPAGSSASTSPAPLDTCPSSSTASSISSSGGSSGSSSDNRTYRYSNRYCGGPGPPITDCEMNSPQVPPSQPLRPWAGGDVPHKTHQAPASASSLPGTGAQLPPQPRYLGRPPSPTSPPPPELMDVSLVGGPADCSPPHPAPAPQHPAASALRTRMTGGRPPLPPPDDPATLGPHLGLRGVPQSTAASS
# runParameters: at 0.1 µM
observationType: inhibition (%)
Hi! Could you send only the number? It should be in %, unit omitted.

Worked examples follow.
structureString | observationType | val
NS(=O)(=O)c1ccc(NC=C2C(=O)Nc3ccc4ncsc4c32)cc1 | inhibition | 20.4
NS(=O)(=O)c1cccc(-c2cc3ccncc3cc2OCc2ccccc2)c1 | inhibition | 0.3
CN(C)C(=O)O[C@@H]1CN[C@@H](C#Cc2cc3ncnc(Nc4ccc(OCc5cccc(F)c5)c(Cl)c4)c3s2)C1 | inhibition | 0.23
N#Cc1c(NC(=O)c2ccccc2F)sc2c1CCCC2 | inhibition | 0.18
CCS(=O)(=O)c1ccc(OC)c(Nc2ncc(-c3cccc(OC)c3)o2)c1 | inhibition | 6.86

Now, please, on to the next molecule.
Query (molecule): "c1ccc(Cc2nc3ccc(Nc4ncnc5ccccc45)cc3[nH]2)cc1" ; field requested: inhibition
5.37

----------
# system: Tyrosine-protein kinase Srms (Homo sapiens)
# runParameters: at 1 µM
# Description: GSK_PKIS: SRMS mean inhibition at 1 uM [Nanosyn]
observationType: inhibition (%)
Hi! Could you send only the number? It should be in %, unit omitted.

structureString | system | observationType | val
Cc1cc(O)cc(C)c1/C=C/c1cncc(C(=O)N(C)C)c1 | Tyrosine-protein kinase Srms (Homo sapiens) | inhibition | 1.27
Cc1ccc2c(-c3ccnc(Nc4cccc(C(F)(F)F)c4)n3)c(-c3ccccc3)nn2n1 | Tyrosine-protein kinase Srms (Homo sapiens) | inhibition | 22.1
Cc1ccc(Nc2ccnc(Nc3cccc(C(N)=O)c3)n2)cc1O | Tyrosine-protein kinase Srms (Homo sapiens) | inhibition | 41

Query (compound): "CCn1c(-c2nonc2N)nc2ccc(F)cc21" ; field requested: inhibition
-0.49

Query (compound): "O=S(=O)(CCOCc1ccc(-c2ccc3ncnc(Nc4ccc(OCc5cccc(F)c5)c(Cl)c4)c3c2)o1)c1ccccc1" ; field requested: inhibition
-2.52

Query (compound): "N#Cc1cccc(Nc2nccc(-c3cnn4ncccc34)n2)c1" ; field requested: inhibition
14.7

Query (compound): "CCn1c(-c2nonc2N)nc2c(C#CC(C)(C)O)nc(OCCNC)cc21" ; field requested: inhibition
-2.34

Query (compound): "Cc1nc(-c2ccccc2)n2nc(NCCCN3CCOCC3)ncc12" ; field requested: inhibition
2.27

Query (compound): "Nc1ccc(C#Cc2cncnc2Nc2ccc(OCc3cccc(F)c3)c(Cl)c2)cc1" ; field requested: inhibition
-0.77

Query (compound): "ON=C1CCc2cc(-c3nc(C4CCNCC4)[nH]c3-c3ccncc3)ccc21" ; field requested: inhibition
-2.67

Query (compound): "CN(C)CCCn1c(-c2nonc2N)nc2cnccc21" ; field requested: inhibition
-4.16

----------
# system: Mitogen-activated protein kinase 11 (Homo sapiens) (UniProt Q15759);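 note: reported values are averaged (mean) percent inhibition of p38beta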
# Sequence (Q15759 whole entry): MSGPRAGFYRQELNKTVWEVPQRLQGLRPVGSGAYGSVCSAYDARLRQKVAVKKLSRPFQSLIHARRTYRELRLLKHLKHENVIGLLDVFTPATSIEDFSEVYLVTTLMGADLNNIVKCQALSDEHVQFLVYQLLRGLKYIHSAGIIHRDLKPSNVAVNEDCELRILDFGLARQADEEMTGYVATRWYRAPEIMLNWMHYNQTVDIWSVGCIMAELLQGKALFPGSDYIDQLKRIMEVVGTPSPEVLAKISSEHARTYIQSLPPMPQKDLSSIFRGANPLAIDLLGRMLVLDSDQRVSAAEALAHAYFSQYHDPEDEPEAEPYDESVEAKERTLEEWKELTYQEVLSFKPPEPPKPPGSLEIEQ
# runParameters: at 0.1 µM
observationType: inhibition (%)
Hi! Could you send only the number? It should be in %, unit omitted.

structureString | system | observationType | readoutUnits | val
O=C(Nc1ccc(Oc2ccc3[nH]c(NC(=O)c4ccco4)nc3c2)cc1)Nc1cc(C(F)(F)F)ccc1F | Mitogen-activated protein kinase 11 (Homo sapiens) (UniProt Q15759) | inhibition | % | 4.14

Hi! What's the reported inhibition for "COc1cc2ncn(-c3cc(OCc4ccccc4S(C)(=O)=O)c(C#N)s3)c2cc1OC" on Mitogen-activated protein kinase 11 (Homo sapiens) (UniProt Q15759)?
2.79

Hi! What's the reported inhibition for "N#Cc1cccc(Nc2nccc(-c3cnn4ncccc34)n2)c1" on Mitogen-activated protein kinase 11 (Homo sapiens) (UniProt Q15759)?
3.01

Hi! What's the reported inhibition for "CCn1c(-c2nonc2N)nc2c(C#CC(C)(C)O)nc(OCCNC)cc21" on Mitogen-activated protein kinase 11 (Homo sapiens) (UniProt Q15759)?
2.05

Hi! What's the reported inhibition for "Nc1nccc(-c2c(-c3ccc(F)cc3)nn3cc(C(F)(F)F)ccc23)n1" on Mitogen-activated protein kinase 11 (Homo sapiens) (UniProt Q15759)?
4.49

Hi! What's the reported inhibition for "c1ccc(Cc2nc3ccc(Nc4ncnc5ccccc45)cc3[nH]2)cc1" on Mitogen-activated protein kinase 11 (Homo sapiens) (UniProt Q15759)?
2.73

Hi! What's the reported inhibition for "CCOc1nccc2c1nc(-c1nonc1N)n2CC" on Mitogen-activated protein kinase 11 (Homo sapiens) (UniProt Q15759)?
3.87

Hi! What's the reported inhibition for "CC(C)c1ccc(Nc2nccc(-c3cnn4ncccc34)n2)cc1" on Mitogen-activated protein kinase 11 (Homo sapiens) (UniProt Q15759)?
2.54

Hi! What's the reported inhibition for "NS(=O)(=O)c1cccc(-c2cc3ccncc3cc2OCc2ccccc2)c1" on Mitogen-activated protein kinase 11 (Homo sapiens) (UniProt Q15759)?
3.17

Hi! What's the reported inhibition for "Cc1ccc(NC(=O)CC2CC2)cc1-c1ccc(C(=O)NCC2CC2)cc1" on Mitogen-activated protein kinase 11 (Homo sapiens) (UniProt Q15759)?
17.2
